Molecular target: hMAO-B (Homo sapiens, UniProt P27338)
Sequence (P27338 1-520): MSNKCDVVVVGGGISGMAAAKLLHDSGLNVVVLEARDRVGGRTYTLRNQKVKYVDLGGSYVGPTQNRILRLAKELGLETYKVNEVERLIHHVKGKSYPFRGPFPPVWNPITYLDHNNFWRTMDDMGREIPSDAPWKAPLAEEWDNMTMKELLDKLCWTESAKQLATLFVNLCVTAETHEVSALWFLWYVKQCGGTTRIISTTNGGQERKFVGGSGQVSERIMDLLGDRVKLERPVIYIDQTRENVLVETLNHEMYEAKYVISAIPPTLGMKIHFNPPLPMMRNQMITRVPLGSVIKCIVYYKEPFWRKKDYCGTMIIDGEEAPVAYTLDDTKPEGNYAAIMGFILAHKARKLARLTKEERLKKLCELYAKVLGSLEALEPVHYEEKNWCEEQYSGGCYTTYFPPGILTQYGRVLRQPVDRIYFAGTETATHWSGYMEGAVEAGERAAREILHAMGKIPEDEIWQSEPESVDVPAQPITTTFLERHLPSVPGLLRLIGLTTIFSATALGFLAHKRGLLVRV
Assay: hMAO-B inhibition, IC50 determination (kynuramine fluorescence)
Assay type: biochemical
Conditions: recombinant hMAO-B, kynuramine 50 μM, 20 min, 37 °C; read-out: IC50 hMAO-B
Collected pIC50 values appear next to each entry.
Bear in mind: pIC50 is minus log10 of a mol/L concentration; give just that figure.

Please review the entries below; each comes with its answer.
| compound.structure.string | pIC50 |
| --- | --- |
| CC(=O)c1ccc(C(C)=NNc2nc(-c3cccc([N+](=O)[O-])c3)cs2)cc1 | 4.38 |
| CC(=NNc1nc(-c2cccc([N+](=O)[O-])c2)cs1)c1ccccc1[N+](=O)[O-] | 8.36 |
| CC(=NNc1nc(-c2cccc([N+](=O)[O-])c2)cs1)c1ccc2ccc3ccccc3c2c1 | 4.09 |

Given the compound O=[N+]([O-])c1cccc(-c2csc(NN=Cc3ccco3)n2)c1 , what is its reported pIC50?
7.02
